METHOD DESCRIPTION: A CellTox Green Cytotoxicity Assay to monitor cytotoxicity in HepG2 cells - 40 hour (AID 1224879); note: nearly all actives have a fitted effect of over 40% in size
REPORTED CONDITIONS: CellTox Green fluorescence; series mostly up to 76.8 µM
Records with an inconclusive call do not appear. Calls of active or inactive are those of the source. Calls come from the whole dose curve; as a rule, active = well fitted activation curve with a large enough effect in the repeat runs; inconclusive = weak or mixed curves; inactive = flat fitted curve, though single readings scatter.
In this exercise, the only acceptable responses are active, inactive

Some solved cases for reference:
INSERT INTO assay_data (compound, assigned_category) VALUES
  ('O=C(O)C(=O)Cc1c[nH]c2ccccc12', 'inactive'),
  ('CC(C)=CCCC(C)CCOC=O (stereo not drawn)', 'inactive'),
  ('Cc1c(C(=O)NCCO)[n+](=O)c2ccccc2n1[O-]', 'inactive'),
  ('O=c1[nH]c(=O)n([C@H]2C[C@H](O)[C@@H](CO)O2)cc1C(F)(F)F', 'active'),
  ('COC(C)CCO (stereo not drawn)', 'inactive'),
  ('CCCCOc1cc(C(=O)NCCN(CC)CC)c2ccccc2n1', 'active'),
  ('CC(C)C(=O)OC/C=C/c1ccccc1', 'inactive'),
  ('CCCCNCCCC', 'inactive'),
  ('Cc1c(-c2ccccc2)oc2c(C(=O)OCCN3CCCCC3)cccc2c1=O', 'inactive'),
  ('CCCC1CCC(=O)O1 (stereo not drawn)', 'inactive');

Which outcome was assigned to CC(C)(CO)[C@@H](O)C(=O)NCCC(=O)O in this test?
inactive

Which outcome was assigned to C=CC1CO1 (stereo not drawn) in this test?
inactive

Which outcome was assigned to C1CCOC1 in this test?
inactive

Which outcome was assigned to OCCN(CCO)CCN(CCO)CCO in this test?
inactive

Which outcome was assigned to O=C(C(Cl)Cl)N1CCOC12CCCCC2 in this test?
inactive

* * *

METHOD DESCRIPTION: Caspase-3/7 induction in HepG2 cells by small molecules, qHTS assay (AID 1346978); note: nearly all actives have a fitted effect of over 15% in size
REPORTED CONDITIONS: HepG2 caspase-3/7 activation, Caspase-Glo luminescence, 17 h; series mostly up to 92.4 µM
Inconclusive results are not listed. The source made the active and inactive calls. Calls come from the whole dose curve; as a rule, active = well fitted activation curve with a large enough effect in the repeat runs; inconclusive = weak or mixed curves; inactive = flat fitted curve, though single readings scatter.
EXPERIMENTAL ENDPOINT: caspase activation

INSERT INTO assay_data (chemical_structure, experimental_endpoint, obs_value) VALUES
  ('OCCN1CCN(CCO)CC1', 'caspase activation', 'inactive'),
  ('C1CSCCS1', 'caspase activation', 'inactive'),
  ('Cc1nc(N)nc(N)c1-c1ccc(Cl)c(Cl)c1', 'caspase activation', 'inactive');

* * *

METHOD DESCRIPTION: qHTS assay to identify small molecule agonists of the estrogen receptor beta (ER-beta) signaling pathway - cell viability counter screen (AID 1259380); note: nearly all actives have a fitted effect of over 30% in size; note: potency is the fitted concentration of half-maximal effect
REPORTED CONDITIONS: ER-beta-bla HEK293T viability, CellTiter-Glo luminescence, 16 h; series mostly up to 92.4 µM
Source text: National Center for Advancing Translational Sciences [NCATS] NIH Chemical Genomics Center [NCGC] U.S. Environmental Protection Agency [EPA] National Institutes of Environmental Health Sciences [NIEHS] National Toxicology Program [NTP] U.S. Food and Drug Administration [FDA] Estrogen receptor (ER), a nuclear hormone receptor, plays an important role in development, metabolic homeostasis and reproduction. […]
Results filed as inconclusive are left out. Calls of active or inactive are those of the source. Calls come from the whole dose curve; as a rule, active = well fitted cell-killing curve with a large enough effect in the repeat runs; inconclusive = weak or mixed curves, or effect the other way; inactive = flat fitted curve, though single readings scatter.
EXPERIMENTAL ENDPOINT: Potency

INSERT INTO results (compound, experimental_endpoint, obs_value) VALUES
  ('C[C@]12C(=O)OC(=O)[C@H]1[C@H]1C=C[C@@H]2C1', 'Potency', 'inactive'),
  ('C[C@@H](N)C(=O)O', 'Potency', 'inactive'),
  ('COc1ccccc1N1CCN(CCCNc2cc(=O)n(C)c(=O)n2C)CC1', 'Potency', 'inactive'),
  ('CC(C)(C)C1CCCCC1=O (stereo not drawn)', 'Potency', 'inactive');

# get_value(readout='Potency', item= CC(C)=CCCC(C)CCOC=O (stereo not drawn) )
inactive

# get_value(readout='Potency', item= CC(C)C1=CC2=CC[C@@H]3[C@](C)(CCC[C@@]3(C)C(=O)O)[C@H]2CC1 )
30.6 µM (active)
